For each of the molecules below, state its Ki.
molecular target: hDA2; assay: Dopamine-2 receptor radioligand binding assay; details: [3H]spiperone
Bridge positions count the residues as written; N and C are the ends. Square brackets hold non-standard residues; d marks the D form. Peptide text beside a SMILES is read from it. * marks the point of attachment. X2 = CN1C[C@H](CSCC(=O)*)C[C@@H]2c3cccc4[nH]cc(c34)C[C@H]21; Abu = CC[C@H](N)C(=O)O

CCCN1C[C@H](CSCC(=O)NCCCC[C@@H](NC(C)=O)C(=O)N[C@H](Cc2ccccc2)C(=O)N[C@H]2CSSC[C@@H](C(=O)N[C@H](C(N)=O)[C@@H](C)O)NC(=O)[C@H]([C@@H](C)O)NC(=O)[C@H](CCCCN)NC(=O)[C@@H](Cc3c[nH]c4ccccc34)NC(=O)[C@H](Cc3ccc(O)c(I)c3)NC2=O)C[C@@H]2c3cccc4[nH]cc(c34)C[C@H]21 | 44.3 nM

Provide Ki for all items below, preserving their order.
1. CC[C@@H]1NC(=O)[C@H](CCCCN)NC(=O)[C@@H](Cc2c[nH]c3ccccc23)NC(=O)[C@H](Cc2ccc(O)cc2)NC(=O)[C@@H](NC(=O)[C@@H](Cc2ccccc2)NC(=O)COCCOCCNC(=O)CSC[C@@H]2C[C@@H]3c4cccc5[nH]cc(c45)C[C@H]3N(C)C2)CSSC[C@@H](C(=O)N[C@H](C(N)=O)[C@@H](C)O)NC1=O
2. CC[C@@H]1NC(=O)[C@H](CCCCN)NC(=O)[C@@H](Cc2c[nH]c3ccccc23)NC(=O)[C@H](Cc2ccc(O)cc2)NC(=O)[C@@H](NC(=O)[C@@H](Cc2ccc(O)cc2)NC(=O)[C@@H](Cc2ccc(O)cc2)NC(=O)[C@H](CCCCN)NC(=O)CSC[C@@H]2C[C@@H]3c4cccc5[nH]cc(c45)C[C@H]3N(C)C2)CSSC[C@@H](C(=O)N[C@H](C(N)=O)[C@@H](C)O)NC1=O [Example 33] (X2-K[dY][dY]CY[dW]K[Abu]CT-NH2; disulfide 4-9)

# output
255 nM
206 nM

From: patent US20110065632A1
